# ASSAY TARGET: Protein cereblon/Eukaryotic peptide chain release factor GTP-binding subunit ERF3A (Homo sapiens, UniProt Q96SW2+P15170)
# Sequence (P15170 whole entry, looked up): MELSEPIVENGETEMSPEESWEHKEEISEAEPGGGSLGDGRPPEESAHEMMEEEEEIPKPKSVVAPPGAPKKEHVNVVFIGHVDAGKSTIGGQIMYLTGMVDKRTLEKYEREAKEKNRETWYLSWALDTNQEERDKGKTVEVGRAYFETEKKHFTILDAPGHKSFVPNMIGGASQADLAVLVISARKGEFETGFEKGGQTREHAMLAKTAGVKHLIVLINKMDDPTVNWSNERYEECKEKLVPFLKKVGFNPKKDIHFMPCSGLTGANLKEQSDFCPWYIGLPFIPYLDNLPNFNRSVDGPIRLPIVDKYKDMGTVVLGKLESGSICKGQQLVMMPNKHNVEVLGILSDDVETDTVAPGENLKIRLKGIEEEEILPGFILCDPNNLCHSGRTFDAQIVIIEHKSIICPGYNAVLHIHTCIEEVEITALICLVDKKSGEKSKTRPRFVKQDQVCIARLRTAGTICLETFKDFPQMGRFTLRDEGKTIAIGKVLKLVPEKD
# Sequence (Q96SW2 whole entry, looked up): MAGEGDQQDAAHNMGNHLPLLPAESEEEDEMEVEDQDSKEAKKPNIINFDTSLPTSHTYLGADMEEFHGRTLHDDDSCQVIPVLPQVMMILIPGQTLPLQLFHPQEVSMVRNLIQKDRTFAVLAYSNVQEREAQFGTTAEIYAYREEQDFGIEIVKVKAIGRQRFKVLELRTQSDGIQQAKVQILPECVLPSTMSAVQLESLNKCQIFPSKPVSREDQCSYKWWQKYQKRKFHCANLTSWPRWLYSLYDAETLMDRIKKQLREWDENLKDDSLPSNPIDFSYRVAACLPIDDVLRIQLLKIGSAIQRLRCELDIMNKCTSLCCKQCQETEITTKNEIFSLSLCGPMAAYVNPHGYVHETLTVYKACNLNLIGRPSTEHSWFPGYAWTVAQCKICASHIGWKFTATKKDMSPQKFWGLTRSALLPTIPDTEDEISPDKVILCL
# METHOD DESCRIPTION: Molecular glue activity at CRBN/GSPT1 in human 22Rv1 cells assessed as induction of GSPT1 degradation at 0.01 uM incubated for 24 hrs by Western blot analysis relative to control
# Format: cell-based
# Activity values compiled below
Use % as the unit, but write only the number.

# input What measured Activity goes with CC(C)(c1ccc(OCc2cncnc2)cc1)c1cc(Cl)c(OCC2CCN(C(=O)CCCCCNc3ccc4c(c3)C(=O)N(C3CCC(=O)NC3=O)C4=O)CC2)c(C#N)c1 (stereo unspecified) ?
# output 97.6

# input What do you get for CC(C)(c1ccc(OCCCCl)cc1)c1ccc(OCC2CCN(C(=O)CCCCCNc3ccc4c(c3)C(=O)N(C3CCC(=O)NC3=O)C4=O)CC2)cc1 (stereo unspecified) ?
# output 37.3

# input What do you get for CC(C)(c1ccc(OCC2CCOC2)cc1)c1cc(Cl)c(OCC2CCN(C(=O)CCCCCNc3ccc4c(c3)C(=O)N(C3CCC(=O)NC3=O)C4=O)CC2)c(C#N)c1 (stereo unspecified) ?
# output 96.6

----------
# Activity values compiled below
# Tested on: Protein cereblon/Androgen receptor (Homo sapiens), P10275+Q96SW2 [UNDEFINED MUTATION]
# Sequence (P10275 whole entry, looked up, change not shown, canonical isoform): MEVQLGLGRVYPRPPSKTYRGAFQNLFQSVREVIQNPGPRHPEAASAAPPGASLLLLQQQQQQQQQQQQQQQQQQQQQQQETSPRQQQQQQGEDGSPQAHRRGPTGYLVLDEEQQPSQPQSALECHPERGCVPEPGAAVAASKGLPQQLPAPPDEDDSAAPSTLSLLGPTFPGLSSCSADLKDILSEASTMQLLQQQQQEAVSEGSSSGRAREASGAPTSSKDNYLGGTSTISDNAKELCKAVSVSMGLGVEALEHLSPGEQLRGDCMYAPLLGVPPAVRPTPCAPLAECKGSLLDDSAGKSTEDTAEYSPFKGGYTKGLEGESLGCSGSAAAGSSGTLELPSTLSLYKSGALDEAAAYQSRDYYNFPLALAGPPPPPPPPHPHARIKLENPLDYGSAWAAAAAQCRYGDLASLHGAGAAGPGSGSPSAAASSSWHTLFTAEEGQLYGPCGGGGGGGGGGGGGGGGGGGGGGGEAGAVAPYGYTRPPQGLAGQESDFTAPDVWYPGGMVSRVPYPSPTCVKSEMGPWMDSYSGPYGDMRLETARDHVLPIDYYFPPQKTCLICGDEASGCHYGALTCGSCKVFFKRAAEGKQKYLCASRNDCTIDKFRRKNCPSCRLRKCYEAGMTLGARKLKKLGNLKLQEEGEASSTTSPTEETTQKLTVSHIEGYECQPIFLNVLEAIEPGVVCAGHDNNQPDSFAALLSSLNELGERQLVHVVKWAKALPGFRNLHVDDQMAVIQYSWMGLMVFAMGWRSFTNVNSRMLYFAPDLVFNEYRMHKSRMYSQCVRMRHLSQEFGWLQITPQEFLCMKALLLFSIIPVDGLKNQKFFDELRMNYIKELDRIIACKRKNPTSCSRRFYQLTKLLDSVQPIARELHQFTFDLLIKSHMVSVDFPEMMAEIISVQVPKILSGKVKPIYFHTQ
# Sequence (Q96SW2 whole entry, looked up, change not shown, canonical isoform): as the sequence (Q96SW2 whole entry, looked up) above
# METHOD DESCRIPTION: PROTAC activity at CRBN/Androgen receptor splice variant 7 in human 22Rv1 cells assessed as induction of AR-V7 degradation at 1 uM incubated for 24 hrs by Western blot analysis relative to control
# Assay type: cell-based

Worked cases, Activity given:
molecule="CC(C)(c1ccc(OCC2CCN(C(=O)CCCCCCCNc3cccc4c3C(=O)N(C3CCC(=O)NC3=O)C4=O)CC2)cc1)c1ccc(OC[C@H](O)CCl)cc1 (some centres not stated)" value_reported=12.5%
molecule="CC(C)(c1ccc(OCC2CCN(C(=O)CCCCCCNc3cccc4c3C(=O)N(C3CCC(=O)NC3=O)C4=O)CC2)cc1)c1ccc(OC[C@H](O)CCl)cc1 (some centres not stated)" value_reported="< 5%"
molecule="CC(C)(c1ccc(OCC2CCN(C(=O)CCCCNc3cccc4c3C(=O)N(C3CCC(=O)NC3=O)C4=O)CC2)cc1)c1ccc(OC[C@H](O)CCl)cc1 (some centres not stated)" value_reported=20.1%
molecule="CC(C)(c1ccc(OCC2CCN(C3CN(C(=O)CCNc4ccc5c(c4)C(=O)N(C4CCC(=O)NC4=O)C5=O)C3)CC2)cc1)c1ccc(OC[C@H](O)CCl)cc1 (some centres not stated)" value_reported=5%
molecule="CC(C)(c1ccc(OCC2CCN(C(=O)CCCCCNc3cccc4c3C(=O)N(C3CCC(=O)NC3=O)C4=O)CC2)cc1)c1ccc(OC[C@H](O)CCl)cc1 (some centres not stated)" value_reported=28.4%

# input What measured Activity goes with CC(C)(c1ccc(OCC2CCN(C(=O)CCCCOc3ccc4c(c3)C(=O)N(C3CCC(=O)NC3=O)C4=O)CC2)cc1)c1ccc(OC[C@H](O)CCl)cc1 (some centres not stated) ?
# output 33.3%

# input What do you get for CC(C)(c1ccc(OCC2CCN(C(=O)CCCCCOc3ccc4c(c3)C(=O)N(C3CCC(=O)NC3=O)C4=O)CC2)cc1)c1ccc(OC[C@H](O)CCl)cc1 (some centres not stated) ?
# output 29.9%

# input What do you get for CC(C)(c1ccc(OCC2CCN(C3CN(C(=O)CCCNc4ccc5c(c4)C(=O)N(C4CCC(=O)NC4=O)C5=O)C3)CC2)cc1)c1ccc(OC[C@H](O)CCl)cc1 (some centres not stated) ?
# output 5%

----------
# Tested on: Protein cereblon/Androgen receptor (Homo sapiens), P10275+Q96SW2 [UNDEFINED MUTATION]
# METHOD DESCRIPTION: PROTAC activity at CRBN/Androgen receptor splice variant 7 in human 22Rv1 cells assessed as induction of AR-V7 degradation at 0.1 uM incubated for 24 hrs by Western blot analysis relative to control
# Format: cell-based
# Activity values compiled below
Use % as the unit, but write only the number.

Worked cases, Activity given:
compound="CC(C)(c1ccc(OCc2cncnc2)cc1)c1cc(Cl)c(OCC2CCN(C(=O)CCCCCNc3ccc4c(c3)C(=O)N(C3CCC(=O)NC3=O)C4=O)CC2)c(C#N)c1 (stereo unspecified)" units_text=% value_reported=74.7
compound="COc1ccc(C(C)(C)c2cc(Cl)c(OCC3CCN(C(=O)CCCCCNc4ccc5c(c4)C(=O)N(C4CCC(=O)NC4=O)C5=O)CC3)c(C#N)c2)cc1 (stereo unspecified)" units_text=% value_reported=76.7
compound="CC1(COc2ccc(C(C)(C)c3cc(Cl)c(OCC4CCN(C(=O)CCCCCNc5ccc6c(c5)C(=O)N(C5CCC(=O)NC5=O)C6=O)CC4)c(C#N)c3)cc2)COC1 (stereo unspecified)" units_text=% value_reported=75
compound="COc1ccc(C(C)(C)c2ccc(OCC3CCN(C(=O)CCCCCNc4ccc5c(c4)C(=O)N(C4CCC(=O)NC4=O)C5=O)CC3)cc2)cc1 (stereo unspecified)" units_text=% value_reported=57.4
compound="CC(C)(c1ccc(OCc2ccncn2)cc1)c1cc(Cl)c(OCC2CCN(C(=O)CCCCCNc3ccc4c(c3)C(=O)N(C3CCC(=O)NC3=O)C4=O)CC2)c(C#N)c1 (stereo unspecified)" units_text=% value_reported=77.7

Lab note: next compound to report on.
# input What measured Activity goes with CC(C)(c1ccc(OCC2CN(S(C)(=O)=O)C2)cc1)c1cc(Cl)c(OCC2CCN(C(=O)CCCCCNc3ccc4c(c3)C(=O)N(C3CCC(=O)NC3=O)C4=O)CC2)c(C#N)c1 (stereo unspecified) ?
# output 81.2

----------
# ASSAY TARGET: Protein cereblon/Androgen receptor (Homo sapiens, UniProt P10275+Q96SW2)
# METHOD DESCRIPTION: PROTAC activity at CRBN/AR in human 22Rv1 cells assessed as induction of AR degradation at 1 uM incubated for 24 hrs by Western blot analysis relative to control
# Format: cell-based
So basically: is Activity under 10%? Then yes. Not under? Then no.

Check out these entries, answers already filled in.
compound="CC(C)(c1ccc(OCC2CCN(C(=O)CCCC#Cc3ccc4c(c3)C(=O)N(C3CCC(=O)NC3=O)C4=O)CC2)cc1)c1ccc(OC[C@H](O)CCl)cc1 (some centres not stated)" category=no
compound="CC(C)(c1ccc(OCC2CCN(C(=O)CCCCNc3ccc4c(c3)C(=O)N(C3CCC(=O)NC3=O)C4=O)CC2)cc1)c1ccc(OC[C@H](O)CCl)cc1 (some centres not stated)" category=yes
compound="CC(C)(c1ccc(OCC2CCN(C3CN(C(=O)CCCNc4ccc5c(c4)C(=O)N(C4CCC(=O)NC4=O)C5=O)C3)CC2)cc1)c1ccc(OC[C@H](O)CCl)cc1 (some centres not stated)" category=no
compound="CC(C)(c1ccc(OCC2CCN(C(=O)CCCCCOc3ccc4c(c3)C(=O)N(C3CCC(=O)NC3=O)C4=O)CC2)cc1)c1ccc(OC[C@H](O)CCl)cc1 (some centres not stated)" category=yes
compound="CC(C)(c1ccc(OCC2CCN(C(=O)CCCCCNc3ccc4c(c3)C(=O)N(C3CCC(=O)NC3=O)C4=O)CC2)cc1)c1ccc(OC[C@H](O)CCl)cc1 (some centres not stated)" category=no
compound="CC(C)(c1ccc(OCC2CCN(C(=O)CCCCCCCNc3cccc4c3C(=O)N(C3CCC(=O)NC3=O)C4=O)CC2)cc1)c1ccc(OC[C@H](O)CCl)cc1 (some centres not stated)" category=yes
compound="CC(C)(c1ccc(OCC2CCN(C3CN(C(=O)CCCCNc4ccc5c(c4)C(=O)N(C4CCC(=O)NC4=O)C5=O)C3)CC2)cc1)c1ccc(OC[C@H](O)CCl)cc1 (some centres not stated)" category=no
compound="CC(C)(c1ccc(OCC2CCN(C3CN(C(=O)CCNc4ccc5c(c4)C(=O)N(C4CCC(=O)NC4=O)C5=O)C3)CC2)cc1)c1ccc(OC[C@H](O)CCl)cc1 (some centres not stated)" category=yes

# input Answer whether the compound CC(C)(c1ccc(OCC2CCN(C(=O)CCCCC#Cc3ccc4c(c3)C(=O)N(C3CCC(=O)NC3=O)C4=O)CC2)cc1)c1ccc(OC[C@H](O)CCl)cc1 (some centres not stated) has Activity strictly less than 10%
# output no

# input What do you get for CC(C)(c1ccc(OCC2CCN(C(=O)CCCCCCOc3ccc4c(c3)C(=O)N(C3CCC(=O)NC3=O)C4=O)CC2)cc1)c1ccc(OC[C@H](O)CCl)cc1 (some centres not stated) ?
# output no

# input What do you get for CC(C)(c1ccc(OCC2CCN(C(=O)CCCCCCCNc3ccc4c(c3)C(=O)N(C3CCC(=O)NC3=O)C4=O)CC2)cc1)c1ccc(OC[C@H](O)CCl)cc1 (some centres not stated) ?
# output yes

----------
# Activity values compiled below
# ASSAY TARGET: Protein cereblon/Androgen receptor (Homo sapiens, UniProt P10275+Q96SW2)
# METHOD DESCRIPTION: PROTAC activity at CRBN/AR in human 22Rv1 cells assessed as induction of AR degradation at 0.1 uM incubated for 24 hrs by Western blot analysis relative to control
# Format: cell-based
Use % as the unit, but write only the number.

Worked cases, Activity given:
molecule="CC(C)(c1ccc(OCC2COC2)cc1)c1cc(Cl)c(OCC2CCN(C(=O)CCCCCNc3ccc4c(c3)C(=O)N(C3CCC(=O)NC3=O)C4=O)CC2)c(C#N)c1 (stereo not given)" assay_target="Protein cereblon/Androgen receptor (Homo sapiens, UniProt P10275+Q96SW2)" units_text=% value_reported=67.1
molecule="CC(C)(c1ccc(OCc2ccncn2)cc1)c1cc(Cl)c(OCC2CCN(C(=O)CCCCCNc3ccc4c(c3)C(=O)N(C3CCC(=O)NC3=O)C4=O)CC2)c(C#N)c1 (stereo not given)" assay_target="Protein cereblon/Androgen receptor (Homo sapiens, UniProt P10275+Q96SW2)" units_text=% value_reported=80.5
molecule="CC(C)(c1ccc(OCC2CCN(C(=O)CCCCCNc3ccc4c(c3)C(=O)N(C3CCC(=O)NC3=O)C4=O)CC2)cc1)c1ccc(OC[C@H](O)CCl)cc1 (stereo not given in full)" assay_target="Protein cereblon/Androgen receptor (Homo sapiens, UniProt P10275+Q96SW2)" units_text=% value_reported=77.4

# input What measured Activity goes with COc1ccc(C(C)(C)c2cc(Cl)c(OCC3CCN(C(=O)CCCCCNc4ccc5c(c4)C(=O)N(C4CCC(=O)NC4=O)C5=O)CC3)c(Cl)c2)cc1 (stereo not given) ?
# output 72.9

# input What do you get for CC(C)(c1ccc(OCc2ccccc2)cc1)c1cc(Cl)c(OCC2CCN(C(=O)CCCCCNc3ccc4c(c3)C(=O)N(C3CCC(=O)NC3=O)C4=O)CC2)c(C#N)c1 (stereo not given) ?
# output 50.1
